Target: Prolyl endopeptidase-like (Mus musculus) (UniProt Q8C167)
Sequence (Q8C167 whole entry, looked up): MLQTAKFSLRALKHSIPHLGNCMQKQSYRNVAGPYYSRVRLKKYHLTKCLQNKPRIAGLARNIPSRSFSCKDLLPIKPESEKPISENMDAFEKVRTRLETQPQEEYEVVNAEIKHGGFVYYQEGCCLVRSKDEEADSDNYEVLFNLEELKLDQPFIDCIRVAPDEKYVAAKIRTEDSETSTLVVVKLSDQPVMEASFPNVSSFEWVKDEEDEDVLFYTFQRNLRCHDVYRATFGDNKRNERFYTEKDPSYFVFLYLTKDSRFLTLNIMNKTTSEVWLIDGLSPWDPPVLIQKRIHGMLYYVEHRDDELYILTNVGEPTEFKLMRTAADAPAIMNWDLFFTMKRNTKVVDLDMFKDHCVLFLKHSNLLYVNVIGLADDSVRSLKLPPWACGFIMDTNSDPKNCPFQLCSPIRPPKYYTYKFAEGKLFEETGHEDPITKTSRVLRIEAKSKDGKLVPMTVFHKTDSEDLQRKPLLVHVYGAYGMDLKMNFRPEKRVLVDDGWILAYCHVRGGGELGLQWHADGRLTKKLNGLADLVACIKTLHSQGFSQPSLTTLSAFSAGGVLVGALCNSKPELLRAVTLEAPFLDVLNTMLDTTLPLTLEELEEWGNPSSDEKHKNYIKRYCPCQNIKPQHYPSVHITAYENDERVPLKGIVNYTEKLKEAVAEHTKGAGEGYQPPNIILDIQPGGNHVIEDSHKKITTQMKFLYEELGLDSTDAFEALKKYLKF
Test: purified PREPL inhibitors, PREPL inhibitor project, biochemical, gel-based competitive ABPP, fluorescence, HTS hits (AID 624481)
Conditions: at 20 µM, hits give high values
quantity: inhibition (%)
Record the value in %, omitting the unit from your answer.

# annotated cases, reported inhibition shown
Item COc1cc2[nH]c3c(N4CCN(c5ccccn5)CC4)ncnc3c2cc1OC : provide inhibition
1

Item CCc1ccc(OCC(=O)Nc2ccc(N3CCN(C(=O)c4ccccc4)CC3)cc2)cc1 : provide inhibition
-73

Item COc1ccc(NC(=O)N2CCN(c3ccc([N+](=O)[O-])cc3)CC2)cc1OC : provide inhibition
-40

Turning to the following compound.
Item C#CCOCCOCCOCCNc1nc(N2CCN(C(=O)[C@H](CCCCN)n3cc([C@@H](N)C(C)CC)nn3)CC2)nc(N2CCN(C(=O)[C@H](Cc3cc4ccccc4[nH]3)n3cc([C@@H](N)C(C)CC)nn3)CC2)n1 (some centres undefined) : provide inhibition
-33

###

Target: Prolyl endopeptidase-like (Mus musculus)
Assay: purified PREPL inhibitors, PREPL inhibitor project, biochemical, gel-based competitive ABPP, fluorescence, HTS hits (AID 624481)
Settings: at 20 µM, hits give high values
quantity: inhibition (%)
Record the value in %, omitting the unit from your answer.

Item CCN1CCCC1CNC(=O)c1ccc2c(c1)NC(=O)/C(=C\c1ccc(OC)c(OC)c1)S2 (centres undefined) : provide inhibition
3

Turning to the following compound.
Item CC(C)Nc1ccc(Nc2ccnc3cc4ccccc4cc23)cc1 : provide inhibition
-11

###

Target: Prolyl endopeptidase-like (Mus musculus)
Assay: purified PREPL inhibitors, PREPL inhibitor project, biochemical, gel-based competitive ABPP, fluorescence, HTS hits (AID 624481)
Details: at 20 µM, hits give high values
Activity calls are given as the source filed them. Cut-off read from the data, not from the text of the source: active = inhibition above about 50%; inactive = the rest.
quantity: inhibition

# annotated cases, reported inhibition shown
GET inhibition | system: Prolyl endopeptidase-like (Mus musculus) | item: CC[C@@H](C)[C@@H]1CN([C@@H](CN2CCC[C@H]2CN2C(N)=NC[C@H]2C(C)C)C(C)C)C(=N)N1CCCC1CCCC1
-53% (inactive)

GET inhibition | system: Prolyl endopeptidase-like (Mus musculus) | item: C#CCOCCOCCOCCNc1nc(N2CCN(C(=O)[C@H](Cc3cc4ccccc4[nH]3)n3cc([C@@H](N)CC(C)C)nn3)CC2)nc(N2CCN(C(=O)[C@H](Cc3cc4ccccc4[nH]3)n3cc([C@@H](N)CC(C)C)nn3)CC2)n1
-82% (inactive)

GET inhibition | system: Prolyl endopeptidase-like (Mus musculus) | item: Cc1ccccc1-c1ccc(Nc2ccc(N3CCOCC3)cc2)nn1
12% (inactive)

GET inhibition | system: Prolyl endopeptidase-like (Mus musculus) | item: C#CCOCCOCCOCCNc1nc(N2CCN(C(=O)[C@H](CCCCN)n3cc([C@@H](N)CC(C)C)nn3)CC2)nc(N2CCN(C(=O)[C@H](Cc3cc4ccccc4[nH]3)n3cc([C@@H](N)Cc4ccc(O)cc4)nn3)CC2)n1
-71% (inactive)

GET inhibition | system: Prolyl endopeptidase-like (Mus musculus) | item: CN(C)c1ccc(C(CNC(=O)c2ccccc2F)c2c[nH]c3ccccc23)cc1 (configuration not stated)
-10% (inactive)

GET inhibition | system: Prolyl endopeptidase-like (Mus musculus) | item: Nc1[nH]n2c(=O)c3c(nc2c1N=Nc1ccc(Cl)cc1)CCCC3
-12% (inactive)

New cases:
GET inhibition | system: Prolyl endopeptidase-like (Mus musculus) | item: CN(C)CCc1cc2c(c3c1ccc1ccccc13)OCO2
-26% (inactive)

###

Target: Prolyl endopeptidase-like (Mus musculus) (UniProt Q8C167)
Test: purified PREPL inhibitors, PREPL inhibitor project, biochemical, gel-based competitive ABPP, fluorescence, HTS hits (AID 624481)
Details: at 20 µM, hits give high values
inhibition: recorded values
Record the value in %, omitting the unit from your answer.

# annotated cases, reported inhibition shown
GET inhibition | system: Prolyl endopeptidase-like (Mus musculus) (UniProt Q8C167) | item: CCCCCN=C(N)NN=Cc1c[nH]c2ccc(OC)cc12
-11

GET inhibition | system: Prolyl endopeptidase-like (Mus musculus) (UniProt Q8C167) | item: Clc1ccc2nc(-c3ccccn3)c(Nc3ccc4c(c3)OCO4)n2c1
-49

GET inhibition | system: Prolyl endopeptidase-like (Mus musculus) (UniProt Q8C167) | item: COc1cc(-c2nnc3sc(Cc4ccc(Cl)cc4)nn23)cc(OC)c1OC
14

New cases:
GET inhibition | system: Prolyl endopeptidase-like (Mus musculus) (UniProt Q8C167) | item: CN(C)c1ccc(C(CNC(=O)c2ccccc2)c2c[nH]c3ccccc23)cc1 (stereo not given)
13

GET inhibition | system: Prolyl endopeptidase-like (Mus musculus) (UniProt Q8C167) | item: COc1ccc(NC(=O)c2ccc(-c3ccc(-c4noc(C)n4)cc3C)cc2)cc1N1CCN(C)CC1
-16

###

Molecular target: Prolyl endopeptidase-like (Mus musculus)
Assay: purified PREPL inhibitors, PREPL inhibitor project, biochemical, gel-based competitive ABPP, fluorescence, HTS hits (AID 624481)
Settings: at 20 µM, hits give high values
inhibition: recorded values
Record the value in %, omitting the unit from your answer.

Item CC(=O)Nc1ccc(C(=O)Cn2c3[n+](c4c(F)c(F)ccc42)CCCCC3)cc1 : provide inhibition
-42

Item CCOc1ccc(CCNC(=O)c2ccc3c(=O)[nH]c4c(C(=O)NC(C)C)sc(=S)n4c3c2)cc1 : provide inhibition
14

Item COc1ccc(C2CC(c3cccc(C)c3)n3nc(N)nc3N2)cc1 (stereo unspecified) : provide inhibition
-50

Item C#CCOCCOCCOCCNc1nc(N2CCN(C(=O)CCCCCCCCCCNC(=O)[C@H]([C@@H](C)CC)n3cc(CCCCN=C(N)N)nn3)CC2)nc(N2CCN(C(=O)CCCCCCCCCCNC(=O)[C@H](CO)n3cc(CCCCCN)nn3)CC2)n1 : provide inhibition
-38

Item O=C(COc1ccccc1Cl)Nc1ccc(N2CCN(C(=O)c3ccccc3)CC2)cc1 : provide inhibition
-61

New cases:
Item CNC(=S)N1N=C(c2ccc(OC)cc2)CC1c1ccc(N(C)C)cc1 (stereo unspecified) : provide inhibition
-55

Item CC1(C)N=C(N)N=C(N)N1c1ccc(Oc2ccc(Cl)cc2)c(Cl)c1 : provide inhibition
-35

Item CN(C)c1ccc(N=C/C=C2\N(C)c3ccccc3C2(C)C)cc1 : provide inhibition
-78

Item CC(C)NCC(O)Cn1c2c(c3ccccc31)CCc1c-2cnn1-c1ccccc1 (stereo unspecified) : provide inhibition
-123

Item Cc1ccc(Nc2nc(NCCO)c3ccccc3n2)cc1C : provide inhibition
-33

Item c1ccc(-c2nc(N3CCCCCC3)c3ccccc3n2)nc1 : provide inhibition
-104

Item COc1ccc2nc3cc(Cl)ccc3c(Nc3cc(CN4CCCC4)c(O)c(CN4CCCC4)c3)c2n1 : provide inhibition
-45

###

Molecular target: Prolyl endopeptidase-like (Mus musculus) (UniProt Q8C167)
Assay: purified PREPL inhibitors, PREPL inhibitor project, biochemical, gel-based competitive ABPP, fluorescence, HTS hits (AID 624481)
Details: at 20 µM
Active and inactive are the calls of the source. Cut-off read from the data, not from the text of the source: active = inhibition above about 50%; inactive = the rest.
Response enum: active, inactive

The examples below pair each entry with its known result.
What call does the record list for CCC(=O)c1ccc2c(c1)N(CCCN(C)C)c1ccccc1S2 ?
inactive

What call does the record list for Cc1ccc(C2=CC(c3ccc(N(C)C)cc3)n3nnnc3N2)cc1 (centres undefined) ?
inactive

What call does the record list for CCN(C(=O)CN1CCN(S(=O)(=O)c2cc(Cl)ccc2Cl)CC1)c1c(N)n(Cc2ccccc2)c(=O)[nH]c1=O ?
active

What call does the record list for Cc1ccsc1C=NN=C1C(=O)Nc2ccccc21 ?
inactive

What call does the record list for Oc1cc(Nc2ccncc2)cc2cccnc12 ?
inactive

New cases:
What call does the record list for C[C@H]1CN([C@@H](C)CO)C(=O)c2cccc(NS(=O)(=O)c3ccc(Cl)cc3)c2O[C@@H]1CN(C)CC1CCCCC1 ?
inactive

What call does the record list for Cc1ccn2c(Nc3ccc4c(c3)OCO4)c(-c3ccccn3)nc2c1 ?
inactive

###

Biological target: Prolyl endopeptidase-like (Mus musculus)
Assay: purified PREPL inhibitors, PREPL inhibitor project, biochemical, gel-based competitive ABPP, fluorescence, HTS hits (AID 624481)
Settings: at 20 µM, hits give high values
Label N if inhibition falls below -30%; label Y in every other case.

Is the recorded value of inhibition equal to or greater than -30% for this molecule? COc1ccc(C(=O)c2coc3ccc(O)c(CN4CCCC4)c23)cc1
N

Is the recorded value of inhibition equal to or greater than -30% for this molecule? Cc1ccc2nc3c(cc(C(=O)NCCc4ccccc4)c(=N)n3CCCN3CCOCC3)c(=O)n2c1
N

Is the recorded value of inhibition equal to or greater than -30% for this molecule? Cc1ccc(S(=O)(=O)Nc2ccc3c(c2)CC(=O)N([C@H](C)CO)C[C@H](C)[C@H](CN(C)Cc2ccc4c(c2)OCO4)O3)cc1
Y

Is the recorded value of inhibition equal to or greater than -30% for this molecule? COc1ccc(CCNC(=O)c2cc3c(=O)n4ccccc4nc3n(CCCN3CCOCC3)c2=N)cc1
Y

Is the recorded value of inhibition equal to or greater than -30% for this molecule? CCCCCNC(=O)c1ccc2c(=O)[nH]c3c(C(=O)NCC4CCCO4)sc(=S)n3c2c1 (centres undefined)
Y

Is the recorded value of inhibition equal to or greater than -30% for this molecule? Cc1c(C#N)c(N=CN(C)C)c(C(=O)c2ccc(Br)cc2)n1-c1ccc(Cl)cc1
N

Is the recorded value of inhibition equal to or greater than -30% for this molecule? C[C@H]1CN([C@@H](C)CO)C(=O)Cc2cc(NC(=O)CCN3CCOCC3)ccc2O[C@@H]1CN(C)Cc1ccc(Oc2ccccc2)cc1
Y

Is the recorded value of inhibition equal to or greater than -30% for this molecule? COc1ccc(N2CCN(c3nc4c(C)cccn4c(=O)c3/C=C(\C#N)C(N)=O)CC2)cc1
N

New cases:
Is the recorded value of inhibition equal to or greater than -30% for this molecule? C#CCOCCOCCOCCNc1nc(N2CCN(C(=O)[C@H](Cc3cc4ccccc4[nH]3)n3cc([C@@H](N)C(C)CC)nn3)CC2)nc(N2CCN(C(=O)[C@H](Cc3cc4ccccc4[nH]3)n3cc([C@@H](N)Cc4ccc(O)cc4)nn3)CC2)n1 (some centres undefined)
N
